method-notes: chemical genetic growth profiling, strain panel (AID 1159580);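 further: tested at 20 µM; growth read once vehicle control cultures reached saturation at 30 °C; 1 = growth at the plate median or of vehicle wells; lower values mean less growth of the strain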
test-context: S. cerevisiae deletion strains, growth OD, locus YPR163C, strain tif3, hits give low values
Out of some 5,500 compounds screened, about 2,000 (36%) were called active. Another 18% or so got no clear call; they are omitted. This is one part of the list.
Recorded normalized growth, one value per entry.
Please state the value as a number alone, without comment.

Cc1cc(O)c(C)c(O)c1C(=O)O
0.969
CCCCNc1cc(C(=O)O)cc(S(N)(=O)=O)c1Oc1ccccc1
0.983
COC1=C(OC)C(=O)C(C/C=C(\C)CC/C=C(\C)CC/C=C(\C)CC/C=C(/C)CC/C=C(\C)CC/C=C(\C)CC/C=C(\C)CC/C=C(\C)CC/C=C(\C)CCC=C(C)C)=C(C)C1=O
0.992

Report normalized growth for C=C1C2CC[C@H]3[C@]4(C)C[C@H](OC5OC(CO)C(OS(=O)(=O)O)C(OS(=O)(=O)O)C5OC(=O)CC(C)C)C[C@@H](C(=O)O)[C@H]4CC[C@]3(C2)[C@H]1O (stereo partly drawn) please.
0.992

For the compound N=c1ccn2c(n1)O[C@@H]1C2O[C@H](CO)[C@H]1O (stereo partly drawn) , what normalized growth is on record?
1.01

Quick check: normalized growth of O=C(O)C1(O)C[C@@H](O)C(O)[C@H](O)C1 (stereo partly drawn) ?
1.03

I have this compound here, CCCCCCCCCCCCCCCC[N+](C)(C)C , and I need its recorded normalized growth.
0.0686

Bench note: what normalized growth did CCOC(=O)c1c(C)cc(O)c(C=O)c1O show?
0.0943

Form field: reported normalized growth of COc1ccc2c3c1O[C@H]1C[C@@H](O)C=C[C@@]31CCN(C)C2
1.01

Suppose we examine the compound CC[C@H]1OC(=O)[C@H](C)[C@@H](O[C@H]2C[C@@](C)(OC)[C@@H](O)[C@H](C)O2)[C@H](C)[C@@H](O[C@@H]2O[C@H](C)C[C@H](N(C)C)[C@H]2O)[C@](C)(O)C[C@@H](C)CN(C)[C@H](C)[C@@H](O)[C@]1(C)O ; what normalized growth value has been reported?
0.974

Can you look up the measured normalized growth of CCOC(=O)c1c(C)cc(O)c(C)c1O for me?
0.918

I'd like to know its normalized growth. The compound in question is CC(=O)NC1SCCC1=O (stereo not drawn)
1.02

For the compound CN1CCC(=C2c3ccccc3Sc3ccccc32)CC1 , what normalized growth is on record?
0.993

Look up normalized growth: O=C(O)c1c2ccccc2cc2ccccc12
0.984

Tell me the measured normalized growth of COc1ccc(OC)c(C(O)C(C)N)c1 (stereo not drawn) , please.
0.98

----------
method-notes: chemical genetic growth profiling, strain panel (AID 1159580);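 further: tested at 20 µM; growth read once vehicle control cultures reached saturation at 30 °C; 1 = growth at the plate median or of vehicle wells; lower values mean less growth of the strain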
test-context: S. cerevisiae deletion strains, growth OD, locus YNL183C, strain NPR1
The whole screen tested about 5,500 compounds, of which about 2,000 (36%) were called active. About 18% were inconclusive and are not listed. No stated cut-off is given here; in the data, active means normalized growth mostly below about 0.91 (no sharp cut-off); inconclusive means no clear call, values can overlap the other calls; inactive means mostly above about 0.92. This is one part of the list.
The reply should name one outcome from true (active), false (inactive)

Take a look at these entries with their results.
CCCCCCCCNC(C)C(O)c1ccc(SC(C)C)cc1 (centres undefined)
false
CNC(C)[C@H](O)c1ccccc1 (some centres undefined)
false
COc1ccc2c(c1)O[C@@H]1COc3cc(OC)c(OC)cc3[C@@H]1C2=O
false
COc1ccc2c(c1)OCc1c-2oc2cc(OC)ccc12
false

I'd appreciate the recorded outcome for CN1CCC(=C2c3ccccc3C=Cc3ccccc32)CC1 from this test.
false

Hello, I am checking results. What call was entered for COc1cc(NC(=S)NNS(=O)(=O)c2ccc(C)cc2)c(OC)cc1Cl ?
false

Test call, this molecule: CCCCCCNC(=O)n1cc(F)c(=O)[nH]c1=O
true

Test call for this molecule, please: CCN(CC)CCCC(C)Nc1c2ccc(Cl)cc2nc2ccc(OC)cc12 (centres undefined)
true

Outcome logged for CN[C@@H](C)[C@@H](O)c1ccccc1 in this assay:
false

Status in this test for CC(C)(O)[C@@H]1[C@H]2OC(=O)[C@@H]1[C@]1(O)C[C@H]3O[C@]34C(=O)O[C@H]2[C@]14C ?
false

Entry CN1CCc2cc3c(cc2[C@H]1C1OC(=O)c2c1ccc1c2OCO1)OCO3 (some centres undefined) : call = ?
false

Which result was noted for this molecule in the test: CC(=O)CSc1nnc(-c2ccc(C(C)(C)C)cc2)n1-c1ccc(Cl)cc1
false

Which outcome was assigned to Oc1cc(Cl)ccc1Oc1ccc(Cl)cc1Cl in this test?
true

Hi, do you know how CCOC(=O)CCC(=O)O[C@H]1[C@H](O[C@@H]2[C@@H](C)[C@H](O[C@H]3C[C@@](C)(OC)[C@@H](O)[C@H](C)O3)[C@@H](C)C(=O)O[C@H](CC)[C@@](C)(O)[C@H](O)[C@@H](C)C(=O)[C@H](C)C[C@@]2(C)O)O[C@H](C)C[C@@H]1N(C)C came out in this test?
false

What did this assay record as the result for COc1ccc2c(C)cc(=O)oc2c1 ?
false

Test call for this molecule, please: CC[C@H]1OC(=O)[C@H](C)[C@@H](O[C@H]2C[C@@](C)(OC)[C@@H](O)[C@H](C)O2)[C@H](C)[C@@H](O[C@@H]2O[C@H](C)C[C@H](N(C)C)[C@H]2O)[C@](C)(O)C[C@@H](C)CN(C)[C@H](C)[C@@H](O)[C@]1(C)O
false

Recorded test outcome, item N=c1ccn2c(n1)O[C@@H]1C2O[C@H](CO)[C@H]1O (some centres undefined)
false

Per the records of this test, what outcome belongs to C[N+](C)(C)CCCCCC[N+](C)(C)C ?
false

I'd appreciate the recorded outcome for COc1cc2c(cc1OC)Cc1cc(OC)c(OC)cc1Cc1cc(OC)c(OC)cc1C2 from this test.
false

For this molecule, state the assay outcome: CN(C)CCCOc1nn(Cc2ccccc2)c2ccccc12
false

Status in this test for N#CC(C#N)=C(SCc1c(Cl)cccc1Cl)SCc1c(Cl)cccc1Cl ?
false

Record request — test call for O=S(=O)(Nc1cccc2nsnc12)c1cc(Cl)sc1Cl
false

Would you mind telling me which call this test gave C=Cc1c(C)c2cc3nc(c4c5[nH]c(cc6nc(cc1[nH]2)C(C)=C6CC)c(C)c5C(=O)[C@@H]4C(=O)OC)[C@@H](CCC(=O)OC/C=C(\C)CCCC(C)CCCC(C)CCCC(C)C)[C@@H]3C (some centres undefined) ?
false

Call for entry O=C(O)c1cc2ccccc2[nH]1 :
false

Could you check what this test reported for COc1cc(/C=C/C(=O)/C=C(O)/C=C/c2ccc(O)c(OC)c2)ccc1O ?
true

Please let me know the test result on file for Cc1cc(C(=O)Nc2ccc(Cl)cc2)nn1C(C)(C)C .
false
